System: SK-MEL-5 melanoma
assay.protocol: NCI-60 one-dose screen, 48 h
condition.parameters: 10 µM unless noted
Compounds without any hit were thinned out: in the full panel of roughly 83,000, 20% have a hit. Calls of active or inactive are those of the source. How the source made its calls: active means growth percent below 10; inactive means the rest.
Possible outcomes: 1 (active), 0 (inactive)

COC(=O)c1c2c(c(C)[n+]([O-])c1C)C(=O)C(NCc1ccc(Br)cc1)=CC2=O :: 1
COc1ccc(/C=C2/SC(=O)N(CC(=O)N3CCN(c4cc5c(cc4F)c(=O)c(C(=O)O)cn5C4CC4)CC3)C2=O)cc1 :: 0
Cc1ccc(CN2CCC(C(=O)Nc3ccc(-c4cc5ccccc5[nH]4)cc3)CC2)o1 :: 0
CCOC(=O)c1sc(-c2ccc(OS(=O)(=O)c3ccc(Br)s3)c(C=O)c2)nc1C :: 1
C1=CC2(C=C1)OC21CCC2(C=CC3(C2)OC3C2CCCCC2)CC1 (stereo not drawn) :: 0
FC(F)(F)c1cccc(CNC2CCN(CCc3ccccc3)CC2)c1 :: 0
COc1ccc2c(c1)C=C1CSCC3=Cc4cc(OC)ccc4OC13O2 :: 0
CCOC(=O)c1c(C=O)nc2ccccc2c1/C=C/c1ccc(Cl)cc1 :: 0
